Value source: patent US7855205B2

system: A375 malignant melanoma; test: Inhibition of cell proliferation (14C-thymidine incorporation), A375; assay type: cell-based, human; details: Homo sapiens, A-375
Reported IC50 values are given for each entry in this list.
outcome_measure: IC50 (µM)

- NC1CCC(Nc2nccc(-c3c[nH]c4ncccc34)n2)CC1 (mixture of isomers): 0.00242
- CC(=O)NC1CCN(c2nccc(-c3c[nH]c4ncccc34)n2)CC1: 16.4
- CN(C)CC(O)Cn1cc(-c2ccnc(N[C@H]3CC[C@H](O)CC3)n2)c2cccnc21 (relative stereo): 0.298
